- TARGET_OF_ASSAY: RAD52-mediated ssDNA annealing (Homo sapiens)
- Construct: made in house
- Sequence (P43351 whole entry): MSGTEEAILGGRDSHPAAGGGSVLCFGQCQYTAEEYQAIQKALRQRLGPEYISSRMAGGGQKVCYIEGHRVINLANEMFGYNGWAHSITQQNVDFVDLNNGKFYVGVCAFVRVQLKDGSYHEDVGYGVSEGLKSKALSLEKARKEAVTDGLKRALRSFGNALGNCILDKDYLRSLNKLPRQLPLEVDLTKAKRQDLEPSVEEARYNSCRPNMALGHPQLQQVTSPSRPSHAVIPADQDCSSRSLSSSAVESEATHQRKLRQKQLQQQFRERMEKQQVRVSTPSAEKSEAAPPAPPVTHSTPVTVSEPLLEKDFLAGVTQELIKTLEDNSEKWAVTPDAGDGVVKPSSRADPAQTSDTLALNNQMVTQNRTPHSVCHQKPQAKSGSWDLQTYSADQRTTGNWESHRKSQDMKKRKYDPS
- PROTOCOL: FRET-based RAD52-mediated ssDNA annealing assay
- Type: biochemical
- CONDITIONS_USED: read-out: IC50 (Annealing extent), ssDNA; 8 nM RAD52, 0.5 nM T-28 and 0.5 nM P-28
pIC50: −log10 of the molar value.
QUANTITY: pIC50

NCCc1cc(O)c(O)cc1O	< 4.00

Qu. Recall and state the measured pIC50 for CN(C)[C@@H]1C(O)=C(C(=O)NCN2CCCC2)C(=O)[C@@]2(O)C(O)=C3C(=O)c4c(O)cccc4[C@@](C)(O)[C@H]3C[C@@H]12 .
Ans. < 4.00

Data origin: paper PMC4982760
